Assay: Caco2 drug permeability assay
Assay type: in vitro ADME
Conditions: human, Caco-2, pH 7.2
Measurement label: Papp A→B at 2 h, 2 µM (×10⁻⁶ cm/s)
Your answer is read as ×10⁻⁶ cm/s, so omit the unit and give the number.

Recorded results for 5 compounds are shown here.
CCN(C(=O)CO)[C@H]1CN(/C(=N\C#N)Nc2cccc(OC(F)F)c2)N=C1c1ccc(Cl)c(Cl)c1 [(S)-4] = 3.4
CCN(C(=O)CO)[C@H]1CN(/C(=N\C#N)Nc2cccc(OC(F)F)n2)N=C1c1ccc(Cl)c(Cl)c1 [(S)-32] = 3.9
CCN(C(=O)CO)[C@H]1CN(/C(=N\C#N)Nc2ccc(Cl)c(OC(F)F)c2)N=C1c1ccc(Cl)c(Cl)c1 [(S)-33] = 1
CCN(C(=O)CO)[C@H]1CN(/C(=N\C#N)Nc2cccc(OC(F)(F)F)c2)N=C1c1ccc(Cl)c(Cl)c1 [(S)-30] = 3.2
CCN(C(=O)CO)[C@H]1CN(/C(=N\C#N)Nc2cccc(OC)c2)N=C1c1ccc(Cl)c(Cl)c1 [(S)-31] = 6.2

get_value(item= CCN(C(=O)CO)[C@H]1CN(/C(=N\C#N)Nc2cc(F)cc(OC(F)F)c2)N=C1c1ccc(Cl)c(Cl)c1 [(S)-34] , readout=Papp A→B at 2 h, 2 µM) returns 2.3

get_value(item= CCN(C(=O)CO)[C@H]1CN(/C(=N\C#N)Nc2cccc(OC(F)F)c2)N=C1c1ccc(Cl)c(C)c1 [(S)-28] , readout=Papp A→B at 2 h, 2 µM) returns 3.3

---

Experiment: Metabolic stability in rat hepatocytes
Type: in vitro ADME
Settings: read-out: CL (CLblood) (converted)
Measurement label: CLhep predicted at […], 1 µM (mL/min/kg)
Your answer is read as mL/min/kg, so omit the unit and give the number.

Recorded results for 6 molecules are shown here.
CCN(C(=O)CO)[C@H]1CN(/C(=N\C#N)Nc2cccc(OC)c2)N=C1c1ccc(Cl)c(Cl)c1 [(S)-31] = 53.3
CCN(C(=O)CO)[C@H]1CN(/C(=N\C#N)Nc2cccc(OC(F)(F)F)c2)N=C1c1ccc(Cl)c(Cl)c1 [(S)-30] = 26.7
CCN(C(=O)CO)[C@H]1CN(/C(=N\C#N)Nc2cccc(OC(F)F)c2)N=C1c1ccc(Cl)c(Cl)c1 [(S)-4] = 41.7
CCN(C(=O)CO)[C@H]1CN(/C(=N\C#N)Nc2ccc(Cl)c(OC(F)F)c2)N=C1c1ccc(Cl)c(Cl)c1 [(S)-33] = 23.3
CCN(C(=O)CO)[C@H]1CN(/C(=N\C#N)Nc2cccc(OC(F)F)c2)N=C1c1ccc(Cl)c(C)c1 [(S)-28] = 46.7
CCN(C(=O)CO)[C@H]1CN(/C(=N\C#N)Nc2cc(F)cc(OC(F)F)c2)N=C1c1ccc(Cl)c(Cl)c1 [(S)-34] = 5

Moving on to another molecule below.
get_value(item= CCN(C(=O)CO)[C@H]1CN(/C(=N\C#N)Nc2cccc(OC(F)F)n2)N=C1c1ccc(Cl)c(Cl)c1 [(S)-32] , readout=CLhep predicted at […], 1 µM) returns 30

---

Target: SMYD2 (Homo sapiens)
Experiment: SMYD2 scintillation proximity assay (SPA)
Format: biochemical
Set-up: The SMYD2 full-length enzyme with an N-terminal 6xHis tag was expressed in Escherichia coli; made in house; host or cells: Escherichia coli
Conditions: Binding efficiency index: pIC50/MW × 1000
Reported BEI (SMYD2) by item:
Keep it simple and answer with nothing but the number.

get_value(item= N#C/N=C(/Nc1cccc(OC(F)F)c1)N1CC(NC(=O)CO)C(c2ccc(Cl)cc2)=N1 (stereo not shown) , readout=BEI (SMYD2)) returns 10.7

get_value(item= CCN(C(=O)CO)C1CN(/C(=N\C#N)Nc2ccc(OC(F)F)cc2)N=C1c1ccc(Cl)cc1 (stereo not shown) , readout=BEI (SMYD2)) returns 9.8

---

Reported BEI (SMYD2) by item:
Target: SMYD2 (Homo sapiens, UniProt Q9NRG4)
Sequence (Q9NRG4 whole entry): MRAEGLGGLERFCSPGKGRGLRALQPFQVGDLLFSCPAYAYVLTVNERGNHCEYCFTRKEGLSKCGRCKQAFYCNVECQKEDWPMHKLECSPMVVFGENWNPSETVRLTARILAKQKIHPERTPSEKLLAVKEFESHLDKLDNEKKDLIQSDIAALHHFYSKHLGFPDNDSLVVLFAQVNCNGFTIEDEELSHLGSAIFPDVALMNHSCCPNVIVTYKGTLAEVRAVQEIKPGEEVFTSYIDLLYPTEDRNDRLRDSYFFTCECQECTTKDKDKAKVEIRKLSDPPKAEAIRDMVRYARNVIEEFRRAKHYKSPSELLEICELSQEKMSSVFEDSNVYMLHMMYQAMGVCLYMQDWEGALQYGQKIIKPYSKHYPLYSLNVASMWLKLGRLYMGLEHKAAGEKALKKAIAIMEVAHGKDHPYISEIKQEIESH
Test: SMYD2 scintillation proximity assay (SPA)
Assay type: biochemical
Set-up: The SMYD2 full-length enzyme with an N-terminal 6xHis tag was expressed in Escherichia coli; made in house; host or cells: Escherichia coli
Conditions: Binding efficiency index: pIC50/MW × 1000
Keep it simple and answer with nothing but the number.

Recorded results for 3 compounds are shown here.
N#C/N=C(/Nc1cccc(OC(F)F)c1)N1CC(N2CNCC2=O)C(c2ccc(Cl)cc2)=N1 (centres unmarked) = 11
CCN(C(=O)CO)C1CN(/C(=N\C#N)NCCC2CC2)N=C1c1ccc(Cl)cc1 (centres unmarked) = 12.2
CCN(C(=O)CO)C1CN(/C(=N\C#N)NCCCC(F)(F)F)N=C1c1ccc(Cl)cc1 (centres unmarked) = 11.3

The reported BEI (SMYD2) value, SMYD2 (Homo sapiens, UniProt Q9NRG4), for CCN(C(=O)CO)C1CN(/C(=N\C#N)Nc2cccc(OC(F)F)c2)N=C1c1ccc(Cl)c(C)c1 (centres unmarked) reads 14

The reported BEI (SMYD2) value, SMYD2 (Homo sapiens, UniProt Q9NRG4), for CCN(C(=O)CO)C1CN(/C(=N\C#N)Nc2cccc(OC(F)F)c2)N=C1c1ccc(Br)cc1 (centres unmarked) reads 11.1

The reported BEI (SMYD2) value, SMYD2 (Homo sapiens, UniProt Q9NRG4), for CCN(C(=O)CO)C1CN(/C(=N\C#N)Nc2ccc(F)c(Cl)c2)N=C1c1ccc(Cl)cc1 (centres unmarked) reads 12.1

The reported BEI (SMYD2) value, SMYD2 (Homo sapiens, UniProt Q9NRG4), for CCN(C(=O)CO)C1CN(/C(=N\C#N)Nc2ccc3c(c2)OC(F)(F)O3)N=C1c1ccc(Cl)cc1 (centres unmarked) reads 11.2

The reported BEI (SMYD2) value, SMYD2 (Homo sapiens, UniProt Q9NRG4), for CCN(C(=O)CO)C1CN(/C(=N\C#N)Nc2ccc(Cl)c(Cl)c2)N=C1c1ccc(Cl)cc1 (centres unmarked) reads 11.1

The reported BEI (SMYD2) value, SMYD2 (Homo sapiens, UniProt Q9NRG4), for CCCN(C(=O)CO)C1CN(/C(=N\C#N)Nc2cccc(OC(F)F)c2)N=C1c1ccc(Cl)cc1 (centres unmarked) reads 11.2

The reported BEI (SMYD2) value, SMYD2 (Homo sapiens, UniProt Q9NRG4), for CCN(C(=O)CO)C1CN(/C(=N\C#N)Nc2cccc(OC(F)F)c2)N=C1c1cc(C)c(Cl)c(C)c1 (centres unmarked) reads 12

The reported BEI (SMYD2) value, SMYD2 (Homo sapiens, UniProt Q9NRG4), for CCN(C(=O)CO)C1CN(/C(=N\C#N)Nc2cccc(OC(F)F)c2)N=C1c1ccc(Cl)cc1 (centres unmarked) reads 12.5

The reported BEI (SMYD2) value, SMYD2 (Homo sapiens, UniProt Q9NRG4), for CCN(C(=O)CO)C1CN(/C(=N\C#N)Nc2cccc(OC(F)F)c2)N=C1c1ccc(Cl)c(Cl)c1 (centres unmarked) reads 13.5

The reported BEI (SMYD2) value, SMYD2 (Homo sapiens, UniProt Q9NRG4), for CCN(C(=O)CO)C1CN(/C(=N\C#N)Nc2cccc(OC(F)F)c2)N=C1c1ccc2c(c1)OCO2 (centres unmarked) reads 10.7

The reported BEI (SMYD2) value, SMYD2 (Homo sapiens, UniProt Q9NRG4), for CCN(C(=O)CN)C1CN(/C(=N\C#N)Nc2ccc(Cl)c(Cl)c2)N=C1c1ccc(Cl)cc1 (centres unmarked) reads 11.3
